Entry source: paper PMC9891086

# TESTED ON: COX-2 (Homo sapiens, UniProt P35354)
# Sequence (P35354 18-604): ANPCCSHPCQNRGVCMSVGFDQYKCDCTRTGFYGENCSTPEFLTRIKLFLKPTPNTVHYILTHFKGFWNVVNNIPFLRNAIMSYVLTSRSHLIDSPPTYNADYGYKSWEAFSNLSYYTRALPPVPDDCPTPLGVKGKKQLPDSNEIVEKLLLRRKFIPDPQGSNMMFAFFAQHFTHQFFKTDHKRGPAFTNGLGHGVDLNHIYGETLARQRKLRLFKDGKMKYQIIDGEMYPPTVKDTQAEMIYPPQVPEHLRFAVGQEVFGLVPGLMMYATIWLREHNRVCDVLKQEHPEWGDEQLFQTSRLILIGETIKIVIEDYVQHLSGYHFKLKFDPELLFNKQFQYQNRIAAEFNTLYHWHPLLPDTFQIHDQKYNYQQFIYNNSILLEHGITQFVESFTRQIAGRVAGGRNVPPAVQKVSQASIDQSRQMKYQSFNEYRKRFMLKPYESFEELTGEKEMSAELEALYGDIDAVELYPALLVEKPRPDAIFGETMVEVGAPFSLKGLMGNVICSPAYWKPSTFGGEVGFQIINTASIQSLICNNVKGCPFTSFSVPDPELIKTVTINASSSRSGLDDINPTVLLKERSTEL
ENDPOINT NAME: IC50 (µM)

- COMPOUND: "CCCCCCCCC/C=C\\CCCCCCCCC(=O)O [Compound 1, cis-10-eicosaenoic acid]"
  TESTED ON: "COX-2 (Homo sapiens, UniProt P35354)"
  RESULT UNIT: "µM"
  IC50: 10.8
- COMPOUND: "COc1cc(O)c(C(C)=O)c(OC)c1 [Compound 5, xanthoxylin]"
  TESTED ON: "COX-2 (Homo sapiens, UniProt P35354)"
  RESULT UNIT: "µM"
  IC50: 123
- COMPOUND: "Oc1ccccc1CN1CCCC[C@H]1c1cccnc1 [Compound 16, (2S)-N-hydroxybenzylanabasine]"
  TESTED ON: "COX-2 (Homo sapiens, UniProt P35354)"
  RESULT UNIT: "µM"
  IC50: 24.2
- COMPOUND: "OCc1ccccc1O[C@@H]1O[C@H](CO)[C@@H](O)[C@H](O)[C@H]1O [Compound 25, salicin]"
  TESTED ON: "COX-2 (Homo sapiens, UniProt P35354)"
  RESULT UNIT: "µM"
  IC50: 162
- COMPOUND: "c1cncc([C@@H]2CCCCN2)c1 [Compound 15, anabasine]"
  TESTED ON: "COX-2 (Homo sapiens, UniProt P35354)"
  RESULT UNIT: "µM"
  IC50: 150

[a] O=c1cc[nH]c(=O)[nH]1 [Compound 21, uracil]
[b] CC[C@H](CC[C@@H](C)[C@H]1CC[C@H]2[C@@H]3CC(=O)C4=CC(=O)CC[C@]4(C)[C@H]3CC[C@]12C)C(C)C [Compound 3, stigmast-4-en-3,6-dione]
[c] N[C@H]1CCC=C[C@H]1C(=O)O [Compound 14]
Reorder: IC50, max to min. Please respond by ranking the labels in the order requested. a, b, c
(a: 146 µM, b: 67.9 µM, c: 19.3 µM)
